- tgt: Leucine-rich repeat serine/threonine-protein kinase 2 (Homo sapiens, UniProt Q5S007, G2019S)
- Sequence (Q5S007 whole entry G2019S): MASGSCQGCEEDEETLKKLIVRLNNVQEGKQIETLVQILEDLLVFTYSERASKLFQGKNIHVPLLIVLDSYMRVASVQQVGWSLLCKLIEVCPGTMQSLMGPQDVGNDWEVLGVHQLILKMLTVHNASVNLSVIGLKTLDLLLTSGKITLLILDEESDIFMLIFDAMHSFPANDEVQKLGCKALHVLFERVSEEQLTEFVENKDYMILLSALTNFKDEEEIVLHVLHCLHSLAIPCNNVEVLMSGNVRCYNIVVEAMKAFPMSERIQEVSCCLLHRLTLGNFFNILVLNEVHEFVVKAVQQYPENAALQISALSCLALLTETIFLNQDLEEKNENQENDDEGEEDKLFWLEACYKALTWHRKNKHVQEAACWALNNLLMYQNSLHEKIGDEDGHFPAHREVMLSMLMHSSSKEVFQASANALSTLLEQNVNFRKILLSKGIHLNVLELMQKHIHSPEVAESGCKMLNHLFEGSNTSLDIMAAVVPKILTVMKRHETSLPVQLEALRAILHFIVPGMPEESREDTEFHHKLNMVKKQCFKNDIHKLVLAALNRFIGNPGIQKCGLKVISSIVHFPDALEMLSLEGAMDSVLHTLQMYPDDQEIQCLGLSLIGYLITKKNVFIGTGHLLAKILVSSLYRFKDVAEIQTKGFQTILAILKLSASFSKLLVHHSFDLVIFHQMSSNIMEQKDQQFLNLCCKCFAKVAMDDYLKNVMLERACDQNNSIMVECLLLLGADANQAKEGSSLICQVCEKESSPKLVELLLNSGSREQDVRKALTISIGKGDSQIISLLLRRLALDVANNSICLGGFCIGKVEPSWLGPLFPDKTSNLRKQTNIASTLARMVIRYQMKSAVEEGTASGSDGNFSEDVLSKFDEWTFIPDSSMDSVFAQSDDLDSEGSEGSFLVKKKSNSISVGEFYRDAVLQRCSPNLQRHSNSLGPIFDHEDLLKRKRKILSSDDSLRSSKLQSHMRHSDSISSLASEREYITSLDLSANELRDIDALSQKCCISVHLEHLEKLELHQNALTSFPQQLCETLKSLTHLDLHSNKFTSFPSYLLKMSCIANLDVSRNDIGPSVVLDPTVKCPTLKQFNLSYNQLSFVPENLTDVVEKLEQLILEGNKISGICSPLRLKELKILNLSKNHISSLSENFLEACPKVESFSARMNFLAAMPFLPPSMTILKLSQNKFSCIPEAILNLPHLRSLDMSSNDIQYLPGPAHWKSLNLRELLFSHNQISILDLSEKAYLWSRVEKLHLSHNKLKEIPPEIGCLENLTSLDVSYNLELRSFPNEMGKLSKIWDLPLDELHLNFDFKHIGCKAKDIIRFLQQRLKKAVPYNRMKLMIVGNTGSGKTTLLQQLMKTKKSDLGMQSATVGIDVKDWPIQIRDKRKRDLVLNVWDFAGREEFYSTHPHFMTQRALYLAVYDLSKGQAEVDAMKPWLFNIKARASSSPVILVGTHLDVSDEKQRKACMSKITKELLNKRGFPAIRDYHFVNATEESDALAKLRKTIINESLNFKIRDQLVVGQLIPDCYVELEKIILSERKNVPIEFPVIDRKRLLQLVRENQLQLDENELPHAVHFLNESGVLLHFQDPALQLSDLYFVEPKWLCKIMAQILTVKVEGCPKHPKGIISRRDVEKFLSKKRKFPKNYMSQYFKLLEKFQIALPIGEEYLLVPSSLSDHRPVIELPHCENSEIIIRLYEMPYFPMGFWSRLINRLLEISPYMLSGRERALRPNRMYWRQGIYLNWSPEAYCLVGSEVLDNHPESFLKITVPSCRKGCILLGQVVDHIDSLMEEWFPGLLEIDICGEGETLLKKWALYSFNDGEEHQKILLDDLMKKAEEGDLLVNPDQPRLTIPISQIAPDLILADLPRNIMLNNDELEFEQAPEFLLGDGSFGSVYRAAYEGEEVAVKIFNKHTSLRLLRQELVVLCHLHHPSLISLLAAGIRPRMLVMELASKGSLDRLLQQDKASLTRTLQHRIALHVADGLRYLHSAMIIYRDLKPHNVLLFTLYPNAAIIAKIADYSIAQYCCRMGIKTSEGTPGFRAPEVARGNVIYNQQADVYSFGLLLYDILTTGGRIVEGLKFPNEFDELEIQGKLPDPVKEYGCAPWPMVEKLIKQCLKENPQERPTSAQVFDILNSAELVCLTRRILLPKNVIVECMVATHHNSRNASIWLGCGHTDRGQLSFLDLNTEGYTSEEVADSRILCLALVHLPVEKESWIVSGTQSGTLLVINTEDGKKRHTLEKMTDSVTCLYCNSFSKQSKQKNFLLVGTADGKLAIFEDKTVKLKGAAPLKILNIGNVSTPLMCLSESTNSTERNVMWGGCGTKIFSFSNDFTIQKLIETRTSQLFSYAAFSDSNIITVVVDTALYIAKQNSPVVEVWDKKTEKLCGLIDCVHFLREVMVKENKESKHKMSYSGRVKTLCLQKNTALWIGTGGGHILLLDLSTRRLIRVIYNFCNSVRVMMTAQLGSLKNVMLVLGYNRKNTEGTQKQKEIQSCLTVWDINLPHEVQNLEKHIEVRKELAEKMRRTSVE
- testDetails: Inhibition of phosphorylated human LRRK2 G2019S mutant at S935 in human HEK293 cells incubated for 2 hrs
- Assay type: cell-based
attributeMeasured: pIC50
Recall that pIC50 is obtained by taking minus log10 of the concentration measured in molar.

cpdSmiles: N#Cc1ccc2c(c1)CC[C@@H]2Oc1ccc2[nH]nc(-c3cnco3)c2c1
pIC50: 7.57
//
cpdSmiles: Cc1n[nH]c2ccc(O[C@H]3CCCc4cc(C#N)ccc43)cc12
pIC50: 6.86
//
cpdSmiles: N#Cc1ccc2c(c1)CC[C@@H]2Nc1ccc2[nH]nc(-c3ccoc3)c2c1
pIC50: 7.02

Exercise: Quick one: pIC50 of N#Cc1ccc2c(c1)CCC[C@@H]2Oc1ccc2[nH]nc(-c3cnco3)c2c1 ?
Key: 8.21
